target: T1, His-tagged human CD40 extracellular domain (ECD) (human, UniProt P25942 21-193); experiment: SPR (IBIS MX96), antibody captured, monovalent CD40 ECD in solution
T1 construct: Bought from Sino Biological; also called human CD40 ECD; CD40-his ECD antigen; not shown: His tag
T1 sequence (P25942 21-193): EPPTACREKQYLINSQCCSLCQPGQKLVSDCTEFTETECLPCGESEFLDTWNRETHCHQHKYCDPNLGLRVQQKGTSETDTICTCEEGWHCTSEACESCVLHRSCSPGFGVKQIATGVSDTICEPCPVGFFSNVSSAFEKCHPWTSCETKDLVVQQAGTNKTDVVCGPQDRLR
EXPERIMENTAL READOUT: kon (M⁻¹ s⁻¹)
One number for each entry, in M⁻¹ s⁻¹.

For record antibody 16040 (antibody, human IgG1, kappa, L234A L235A, V domains shown, Fully human IgG1-LALA / kappa) VH: QVQLVESGGGVVQPGRSLRLSCAASGFTFSIYGMHWVRQAPGKGLEWVAVISYDGSNKYYADSVKGRFTISRDNSKNTLYLQMNSLRAEDTAVYYCAAGNWFDPWGQGTLVTVSS VL: DIQLTQSPSFLSASVGDRVTITCRASQGISSYLAWYQQKPGKAPKLLIYAASTLQSGVPSRFSGSGSGTEFTLTISSLQPEDFATYYCQQLNRYPLTFGGGTKVEIKR the listed kon is 52000
